- method notes: yeast display, Sf9 membrane polyspecificity reagent, FACS + sequencing; frameworks hold sequencing errors

>  <primary sequence>
QDQHVESGGGLVQAGGRLRLICAASGGNFTKNAMGWYRQAPGKERELVAGISRTGGNTYYADSVKGRFTISRDNAKNTVYLQMNSLKPDDTAVYYCNALYGGPHRLRYDYWGQGTQVTVSS

>  <polyreactivity (PSR sort gate)>
low polyreactivity

$$$$
>  <primary sequence>
QVQLVESGGGLVQAGGSLRLSSAASGIIFPGYAMVWYRQAPGKERELVAAISSGGDTYYADSVKGRFTISRDNAKNTVYLQMNSLKPEDTGVYYCTAAQLSSDRTSNYGYYPWYEYWGQGTQVTVSS

>  <polyreactivity (PSR sort gate)>
low polyreactivity

$$$$

---

- method notes: yeast display, Sf9 membrane polyspecificity reagent, FACS + sequencing; frameworks hold sequencing errors

>  <primary sequence>
QVQLVESGGGLVQAGGSLRLSCAASGRTLFYYTMGWYRQAPGKERELVAAITTGGRTYYADSVKGRFTISRDNAKNTVYLQMNSLKPEDTAVYYCAAHTYYYPVGFNYWGQGTQVTVSS

>  <polyreactivity (PSR sort gate)>
low polyreactivity

$$$$
>  <primary sequence>
QVQLVESGGGLVQAGGSLRLSCAASGSTSYNAMGWYRQAPGKERELVAAISDGGGSTYYADSVKGRFTISRDNAKNTVYLQMNSLKPEDTAVYYCAADTITGDGYWGQGTQVTVSA

>  <polyreactivity (PSR sort gate)>
low polyreactivity

$$$$
>  <primary sequence>
QVQLQESGRRPGAAGGSPRMSCAASGNIFWVAVMGRYRQAPGKERELGASIGFGCTTYYADSVKCRFTISRDNAKNTVYLQMISLKPEDTAVYYCAAPHYDWGELDYWGQGTQVPVSS

>  <polyreactivity (PSR sort gate)>
low polyreactivity

$$$$
>  <primary sequence>
QVQLVESGGGLVQAGGSLRLSCAASGRIFTYYAMGWYRQAPGKERELVAAISTRGGNTYYADSVKGRFTISRDNAKNSVYLQMNSLKPEDTAVYYCSKENYYGGGFDYWGQGTQVTVSS

>  <polyreactivity (PSR sort gate)>
high polyreactivity

$$$$
>  <primary sequence>
QVQLVESGGGLVQAGGSLRLSCAASGSIFSVNDMGWYRQAPGKERELVAAISSGGSTNYADSVKGRFTISRDNAKNTVSLQMNSLKPEDTAVYYCNTVVRGWSSSAYDYWGQGTQVTVSS

>  <polyreactivity (PSR sort gate)>
low polyreactivity

$$$$
>  <primary sequence>
QVQLVESGGGLVQAGGSLRLSCAASGRIFTYNAMGWYRQAPGKERELVATITWRGGGTYYADSVKGRFTISRDNAKNTVYLQMNSLKPEDTAVYYCNRRLPGDGQYGYRRYDYWGQGTQVTVSS

>  <polyreactivity (PSR sort gate)>
low polyreactivity

$$$$
>  <primary sequence>
QVQLVESGGGLVQAGGSLRLSCAASGRTFPDNAMGWYRQAPGKESEFVAAISSSGSTYYADSVKGRFTISRDNAKNTVYLQMNSLKPEDTAVYYCNRDDWPSYDFTGGDYWGQGTQVTVSS

>  <polyreactivity (PSR sort gate)>
low polyreactivity

$$$$
>  <primary sequence>
QVQLVESGGGLVQAGGSLRLSCAASGRTFYYNAMGWYRQAPGKERELVAVITRGSTYYADSVKGRFSISRDNAKNTVYLQMKSLKPEDTAVYYCCKYRHYHRGYDYWGQGTQVTVSS

>  <polyreactivity (PSR sort gate)>
high polyreactivity

$$$$
>  <primary sequence>
QVQLVESGGAIVQAGGSHRLRCAASGSILGRYAMAWYRQAPGKERELVAAISRRGGSTTYADSVKGRFTISRDNAKNTVYFQMNSLKPEDTALYYCNTVSSWGRNYQDEYDYWGQGTQVSVSS

>  <polyreactivity (PSR sort gate)>
high polyreactivity

$$$$
>  <primary sequence>
QVQLVESGGGLVQAGGSLRLSSAASGFIIPDYGMGWYRQAPGKDSELVAAISRNGVSTYYADSVKGRFTISRDTAKNTVYLQMNSLKPEATAVYYCAARYYRIRRVSKSGYYWGQGTQVTVSS

>  <polyreactivity (PSR sort gate)>
low polyreactivity

$$$$
>  <primary sequence>
QVQLVESGGGLVQAGGSLRLSCAAYGSTFGDYAMGWYRQAPGKERELVAAITIGGITTYADSVKGRFTISRDNAKNTVYLQMNSLKPEDTAVYYCADAERGDWDDYWGQGTQVTVSS

>  <polyreactivity (PSR sort gate)>
low polyreactivity

$$$$

---

- method notes: yeast display, Sf9 membrane polyspecificity reagent, FACS + sequencing; frameworks hold sequencing errors

>  <primary sequence>
QVQLVESGGGLVQAGGSLRLSCAASGFIFNYYAMGWYRQAPGKERELVAAISPSGDNTYYADSVKGRFTISRDNAKNTVYLQMNSLKPEDTAVYYCNKVQGSWRVPYYYWGQGTQVTVSS

>  <polyreactivity (PSR sort gate)>
high polyreactivity

$$$$
>  <primary sequence>
QVQLVDSGGGLVQAGGSLRLSCAASGSTFVYYAMGWYRQAPGKERELVAAITWNGGSTYYADSVKGRFTISRDNAKNTVYLQMNSLKPEDTAVYYCNAEYPVYFEGYPYYWDYWGDSWGQGTQVTVSS

>  <polyreactivity (PSR sort gate)>
high polyreactivity

$$$$
>  <primary sequence>
QVQLVESGGGLVQAGGSLRLSCAASGIIFGHYDMGWYRQAPGKERELVAAITFTGDSTYYADSVKGRFTISRDKAKNTVYLQMTSLKPEDTAVYYCAAETPVPWGSWGYDYWGQGTQVTVSS

>  <polyreactivity (PSR sort gate)>
low polyreactivity

$$$$
>  <primary sequence>
QDQLVESAGGLVQAGGSLRLSCAASGRIFSRYAMGWYRQAPGKERELVAAITQSGTSTYYADSVKGRFTISRDIAKNTVYLQMNSLKAEDTAVYYCNAYSQYRYDYWGQGTQVTVSS

>  <polyreactivity (PSR sort gate)>
low polyreactivity

$$$$
>  <primary sequence>
QVQLVESGGGLVQAGGSLRLSCAASGRIFRKYAMGWYRQAPGKERELVAGITWRGTSTYYADSVKGRFTISRDNAKNTVYLQMNSLKPEDTAVYYCAAEWKGYYVHDYWGQGTQVTVSS

>  <polyreactivity (PSR sort gate)>
high polyreactivity

$$$$
>  <primary sequence>
QVQLVESGGGLVQAGGSLRLSCAASGSTFGFYAMGWYRQAPGKERELVAAITGSGGSTYYADSVKGRFTISRDNAKNTVYLQMNSLKPEDTAVYYCNRYGVRYYRYDYWGQGTQVTVSS

>  <polyreactivity (PSR sort gate)>
high polyreactivity

$$$$
>  <primary sequence>
QVQLVESGGGLVQAGGRLRLSCAASGSTFAGNAMGWYRQAPGKERELVAAIDSSTGSTYYADSVKGRFTISRDNAKNTVYLQMNSLKAEDTAVYYCNKTSFLVKLDYWGQGTQVTVSS

>  <polyreactivity (PSR sort gate)>
low polyreactivity

$$$$
>  <primary sequence>
QVQLVESGGGLVQAGGSLRLSCAASGRTSAWYAMGWYRQAPGKERELVADISGSADSTYYADSVKGRFTISRDNAKNTVYLQMNSLKPEDTAVYYCATSISTPSGDPFDYWGQGTQVTVSS

>  <polyreactivity (PSR sort gate)>
low polyreactivity

$$$$
>  <primary sequence>
QVQLVESGGGLVQAGCSLRLSCAASGRIFASNPMGWYRQAPGKERELVAGISRNGGSTFYADSVKGRFTISRDNAKNTVDVQMHSLKPEDTEVYYCARYFTHSGGYRDRIYYYWGQGTQVTVSS

>  <polyreactivity (PSR sort gate)>
low polyreactivity

$$$$
>  <primary sequence>
QVQLEESGAGLVQAGCSLRLSCAASGSTLFNNAMGWYRQAPGKERELVAAITFSGASTYYADSVKGRFTISRDNAKNTVYLQMNSLKPEDTAVYYCGADPSFNYIPVYYFDYDYWGQATQVTVSS

>  <polyreactivity (PSR sort gate)>
low polyreactivity

$$$$
>  <primary sequence>
QVQLVESGGGLVQAGGSLRLSCAASGRIFGPYAMGWYRQAPGKERELVAAISWSGGSTYYADSVKGRFTISRDNAKNTVYLQMNSLKPEDTAVYYCAARERRVYGDRFYKLDYWGQGTQVTVSS

>  <polyreactivity (PSR sort gate)>
high polyreactivity

$$$$

---

- method notes: yeast display, Sf9 membrane polyspecificity reagent, FACS + sequencing; frameworks hold sequencing errors
value kind: polyreactivity (PSR sort gate)

>  <primary sequence>
QVQLVESGGGLVQAGGSLRLSCAASGRIFKRNAMGWYRQAPGKERELVAAINWSGGSTYYADSVKGRFTISRDNAKNTVYLQMNSLKPEDTAVYYCAALRVQGDYDYWGQGTQVTVSS

>  <reported result>
high polyreactivity

$$$$
>  <primary sequence>
QVQLVESGGGLVQAGGSLRLSSPASGRIFITNAMGWYRQAPGKERELVASITVSGDSTYYADSVKGRFTISRDNAKNPVYLQMNSLKPEDTAVYYCAADYYALDKVLGNNYWGQGTQVTVSS

>  <reported result>
low polyreactivity

$$$$
>  <primary sequence>
RVQLVESGGGLVHAGCSLRLSCAASGNTFWYNAMGWYRQAPGKVRELVAAISYSGGGTYYADSVKGRFTISRDNAKNTVYLQMNSLKPEDTAVYYCAADTLQRSFVLYDYWGHGTQVTVSS

>  <reported result>
high polyreactivity

$$$$
>  <primary sequence>
QVQLVESGGGLDQAGRSLRLSCAASGFIFYYNAMGWYRQAPGKQRELVAAISSGGSTNYADSVKGRFTISRDNAKNTVYLQMNSLQPEDTAVYYCAKRPTGGYKYYYTTSKYDYWGQGTQVTVSS

>  <reported result>
low polyreactivity

$$$$
>  <primary sequence>
QVQLVESGGGLVQAGGSLRLTCAASGFIFCSYAMRWYRQAPGKERELVAAISFRGGSTFYADSVKGRFTISRDNAKNTVYLQMNSLKPEDTAVYYCNKAAYSIHSGLSYYHWGQGTQVTVSS

>  <reported result>
low polyreactivity

$$$$

Cited source: the nanobody polyreactivity screen of Harvey et al. (2022)
